test system: A498 renal; experiment: NCI tumour cell line growth inhibition, 48 h; in the data active = GI50 below about 0.43 µM; inactive = the rest
Lab note: assign the record to one of TRUE for active, FALSE for inactive

Solved cases (5 shown):
stdin: Given C=CC(COC(c1ccccc1)(c1ccccc1)c1ccccc1)N(CC)CC (centres undefined) , state the outcome it received in this test.
stdout: FALSE

stdin: Which result was noted for this molecule in the test: N.N.O=P([O-])([O-])C1(P(=O)([O-])[O-])CCCCCN1.[Pt+2]
stdout: FALSE

stdin: Can you look up the reported call for CCSc1ccc(C2C(Br)C(=O)N2c2cc(OC)c(OC)c(OC)c2)cc1 (centres undefined) for me?
stdout: TRUE

stdin: Assay result, entry CC[C@H](C)C(=O)O[C@H]1C[C@H](O)C=C2C=C[C@H](C)[C@H](CC[C@@H](O)C[C@@H](O)CC(=O)O)[C@H]21 — outcome?
stdout: FALSE

stdin: Each molecule tested received a call. Report the one for Cc1cc(I)cc(CN(C)CCCN2CCN(C)CC2)c1O .
stdout: FALSE

New cases:
stdin: # fetch the recorded call for Cc1ccc(Sc2cc3c(oc2=O)-c2ccccc2OC3O)cc1 (centres undefined) here
stdout: FALSE

====

tested on: CCRF-CEM leukemia; assay: NCI tumour cell line growth inhibition, 48 h
Record form. Attribute: TGI. Fill in for each entry.

Worked cases, answers included:
stdin: Under CCRF-CEM leukemia, report TGI for COc1ccc(Sc2ccccc2N)cc1
stdout: 83.8 µM

stdin: Provide TGI, tested on CCRF-CEM leukemia, for O=C(CCC(=O)C1CCC/C1=N/O)Nc1ccc(Cl)cc1 (stereo unspecified) .
stdout: > 100 µM

stdin: Report TGI from CCRF-CEM leukemia testing of CC(=O)c1nc2ccccc2n1CC(=O)c1cccc(Cl)c1
stdout: > 26.2 µM

Value sought for every listed compound: TGI.
1. CCCCCCCCCCC(C)CCCCCCC(=O)O (stereo unspecified)
2. CCOC(=O)N1CCC(=C2c3ccc(Cl)cc3CCc3cccnc32)CC1
3. Cc1ccc(-c2cc(O)c(-c3ccc(C)cc3C)cc2O)c(C)c1
4. Cn1c(=O)c2/c(n(C)c1=O)=N\C=c1\c(=O)n(C)c(=O)n(C)\c1=N\C=2

stdout:
1: > 100 µM; 2: > 100 µM; 3: > 100 µM; 4: > 100 µM

Quick request: TGI for each listed item, please.
1. O=Nc1c(-c2c(O)[nH]c3ccc(Br)cc23)[nH]c2ccccc12
2. C[N+](C)(CCNC(=O)c1cccc2cc3ccccc3nc12)Cc1ccc([N+](=O)[O-])s1
3. CN(Cc1cc(Cl)c(Cl)cc1NC(=O)CN)[C@H]1CCCC[C@@H]1N1CCCC1
4. Cn1cc(C2=C(N3CCOCC3)C(=O)NC2=O)c2ccccc21

stdout:
["16.8 µM", "> 25 µM", "> 100 µM", "> 25 µM"]

====

tested on: LOX IMVI melanoma; assay: NCI tumour cell line growth inhibition, 48 h
Exercise: for every item that follows, state its recorded GI50.

# count of solved cases: 5
stdin: Output measured GI50 for this item: Cc1cc(C(=O)c2ccccc2)c(C)c2c1[nH]c1ccc(Cl)cc12
stdout: 0.0642 µM

stdin: Tell me its GI50 given CN(C)CCCn1c(-c2nonc2N)nc2cnccc21 as the entry.
stdout: > 25 µM

stdin: Answer with reported GI50 of O=C(/C=C\c1cccc2ccccc12)c1cccc2ccccc12
stdout: 4.42 µM

stdin: Kindly indicate its recorded GI50. Item: CC[C@H](C)C(=O)O[C@H]1C[C@H](O)C=C2C=C[C@H](C)[C@H](CC[C@@H](O)C[C@@H](O)CC(=O)O)[C@H]21
stdout: > 100 µM

stdin: Please report GI50 for the following molecule: O=C1C(Cl)=C(Nc2cccc(C(F)(F)F)c2)C(=O)N1Cc1ccc(Cl)cc1
stdout: 0.241 µM

For each of the molecules below, state GI50.
1. C[C@@H](Nc1nc(Nc2ccc(F)c(Cl)c2)nc2ccccc12)C1CC1
2. COc1cc(NC(=O)C2=C(N3CCOCC3)/C(=C/c3ccc(Cl)cc3)CC2)cc(OC)c1OC

stdout:
1. 1.68 µM
2. > 100 µM

Hi there! I need GI50 for each item below, if you can.
1. CC(O)c1cc(C(=O)N[C@@H](C)Cn2ccc(-c3ccc(C#N)c(Cl)c3)n2)n[nH]1 (some centres not stated)
2. CC1=NN(c2nc(N)nc(/C=C\c3ccc([N+](=O)[O-])s3)n2)C(C)(C)C1
3. CCCCCCCCCCCCCCCC1=NC(C)(C)CN1C(C)C
4. CS(=O)(=O)N(c1cc(-c2ccc3ncnc(Nc4cccc(Cl)c4)c3c2)cnc1Cl)S(C)(=O)=O
5. Cc1ccc(-c2cc(O)c(-c3ccc(C)cc3C)cc2O)c(C)c1
6. CN(C)/N=N/c1nc[nH]c1C(N)=O
7. O=C1OCC2=C1C(c1ccccc1)c1cc3c(cc1N2CCO)OCCO3 (configuration not stated)

stdout:
87.2 µM
> 100 µM
1.45 µM
0.427 µM
1.92 µM
29.8 µM
0.36 µM

Would you be so kind as to report GI50 for each listed record?
1. CCN(CC)c1ccc(/C=C/C=C2\NC(=O)NC2=O)cc1
2. O=C(NC(=S)Nc1cc(Cl)ccc1O)c1cccc(Br)c1
3. C/C(=N\NC(=S)N(C)C)c1ccccn1

stdout:
["7.15 µM", "15.8 µM", "0.00215 µM"]

====

tested on: MDA-MB-435
Outcome (select one): active, inactive

Study these solved cases before continuing.
stdin: Called result for O=C1OCC2=C1C(c1ccccc1)c1cc3c(cc1N2CCO)OCCO3 (configuration not stated)
stdout: active

stdin: Write down the call the test reported for this compound. Item: NC(=S)NN=C1CSSC1
stdout: inactive

stdin: Answer briefly: the call reported for O=Nc1c(-c2c(O)[nH]c3ccc(Br)cc23)[nH]c2ccccc12 in this assay.
stdout: inactive

More entries:
stdin: Hi, sorry to bother you, what did the test record for CS(=O)(=O)N(c1cc(-c2ccc3ncnc(Nc4cccc(Cl)c4)c3c2)cnc1Cl)S(C)(=O)=O ?
stdout: inactive

stdin: Per the assay record, what outcome was assigned to CCN(CC)C(=S)[S][Bi]([S]C(=S)N(CC)CC)[S]C(=S)N(CC)CC ?
stdout: inactive

stdin: State the result this test recorded for Cc1ccc(-c2cc(O)c(-c3ccc(C)cc3C)cc2O)c(C)c1 .
stdout: inactive

stdin: For Cc1cc(C(=O)c2ccccc2)c(C)c2c1[nH]c1ccc(Cl)cc12 , what call appears in the results of this test?
stdout: active

stdin: Kindly provide the recorded test outcome for the following compound: CCCCCn1c(C)cc(/C=C\c2ccc3cc(C)ccc3[n+]2C)c1C
stdout: active

====

test system: LXFL 529 NSCLC; assay: NCI tumour cell line growth inhibition, 48 h
Readout: TGI

Here is how some molecules turned out for TGI.
stdin: Indicate its recorded TGI; the molecule in question is CCCCCCCCCCC(C)CCCCCCC(=O)O (stereo unspecified)
stdout: > 100 µM

stdin: Give the reported TGI for this molecule. NC(CSSCC(N)Cc1ccccc1)Cc1ccccc1 (stereo unspecified)
stdout: > 100 µM

stdin: Tell me measured TGI for Brc1cc2c(cc1Br)CN(c1ccccc1)C2 please.
stdout: > 100 µM

stdin: Hello, please tell me recorded TGI for this one: COC1OC2=CCC3C(=O)NC(=O)C3C2[C@H](OCc2ccccc2)C1OCc1ccccc1 (stereo partly specified)
stdout: 3.09 µM

stdin: Give a short answer stating reported TGI for N#CCC(=O)N1CCCCCCC1 .
stdout: > 100 µM

Moving on to the next molecule.
stdin: State its TGI for this molecule: CC1(C)CC(N(C(=O)/C=C/c2ccc([N+](=O)[O-])o2)C2CCCCC2)CC(C)(C)N1
stdout: 17.8 µM

====

Field: TGI. Provide a value for each of the compounds that follow.
test system: MDA-N; assay: NCI tumour cell line growth inhibition, 48 h

Can you give me TGI for all of these, one by one?
1. CC1(C)CCc2c(c(N=Nc3ccc(F)cc3)c3ccccc3c2O)O1
2. NC(N)=NCCCC(NC(=O)OCCCCn1ccc(N)nc1=O)C(=O)O (configuration not stated)
3. CCOc1ccc2c(c1)c(=O)c1c(NCCN(CC)CC)ccc3nnn2c31
4. C=CC(C)(C)C(=C)C(=O)Nc1ccccc1I
5. CC(=O)Nc1ccccc1NC1CC(C)N(c2ccccc2)N1C(C)=O (configuration not stated)

stdout:
1: 31.5 µM; 2: > 100 µM; 3: 35.7 µM; 4: > 100 µM; 5: > 10 µM

State the recorded TGI for every item in the following list.
1. O=C(O)C(=O)/C=C(\O)c1ccc(Br)cc1
2. C=C1CN(C2=NCCO2)C1
3. CC(=C/c1ccccc1)/C=C1/NC(=S)N(/C=C2\C(=O)Oc3ccccc3C2=O)C1=O

stdout:
> 100 µM
> 100 µM
> 100 µM

Respectfully, I request TGI for each entry included below.
1. CC1=C(C)C(=O)C(C2=CC(=O)C=CC2=O)=C(C2=CC(=O)C=CC2=O)C1=O
2. Oc1cc(Br)cc2cc(Cl)cnc12
3. C=CCn1c(-c2ccc([N+](=O)[O-])cc2)csc1=N
4. C[C@H]1COC2=C1C(=O)C(=O)c1c2ccc2c1CCCC2(C)C
5. O=[N+]([O-])c1cccc2nccc(NCCCO)c12
6. O=C(O)CCC(NC(=O)c1ccc(Nc2nc3cc(C(F)(F)F)ccc3nc2C(=O)O)cc1)C(=O)O (configuration not stated)
7. O=C(O)Cn1cc([N+](=O)[O-])c(=O)c2ccccc21

stdout:
1: > 59.3 µM; 2: > 100 µM; 3: > 100 µM; 4: 3.26 µM; 5: 22.2 µM; 6: > 100 µM; 7: > 100 µM

Lab note: each compound below needs its TGI filled in.
1. Cn1c(O)c(C=Nc2ccccc2Cl)c(=O)n(C)c1=O
2. CCCCCCCCCCCCCC(=O)N(CCCCCCCCC)CC(O)C(O)C(OC1OC(CO)C(O)C(O)C1O)C(O)CO (configuration not stated)
3. CCC[C@@H]1C(=O)N=C(N)N1C(=O)OCc1ccccc1
4. S=c1[nH]c2ccc(I)cc2c(=S)n1Cc1ccccc1
5. CC(C)(C)[Si](C)(C)OCC1OC(n2cnc3c(=O)[nH]c(N)nc32)C(O[Si](C)(C)C(C)(C)C)C1O[Si](C)(C)C(C)(C)C (configuration not stated)
6. COc1ccc(C(=O)/C=C/c2cc(O)c(O)cc2F)c(OC)c1
7. Cc1ccc(-n2cc([Si](C)(C)C)nn2)s1

stdout:
1: > 100 µM; 2: 38.1 µM; 3: > 100 µM; 4: 56.9 µM; 5: 3.3 µM; 6: 53.4 µM; 7: > 100 µM

All figures here come from PubChem BioAssay (NCI).
